# System Name: human serum albumin (HSA) (Homo sapiens)
# Sequence (P02768 25-609): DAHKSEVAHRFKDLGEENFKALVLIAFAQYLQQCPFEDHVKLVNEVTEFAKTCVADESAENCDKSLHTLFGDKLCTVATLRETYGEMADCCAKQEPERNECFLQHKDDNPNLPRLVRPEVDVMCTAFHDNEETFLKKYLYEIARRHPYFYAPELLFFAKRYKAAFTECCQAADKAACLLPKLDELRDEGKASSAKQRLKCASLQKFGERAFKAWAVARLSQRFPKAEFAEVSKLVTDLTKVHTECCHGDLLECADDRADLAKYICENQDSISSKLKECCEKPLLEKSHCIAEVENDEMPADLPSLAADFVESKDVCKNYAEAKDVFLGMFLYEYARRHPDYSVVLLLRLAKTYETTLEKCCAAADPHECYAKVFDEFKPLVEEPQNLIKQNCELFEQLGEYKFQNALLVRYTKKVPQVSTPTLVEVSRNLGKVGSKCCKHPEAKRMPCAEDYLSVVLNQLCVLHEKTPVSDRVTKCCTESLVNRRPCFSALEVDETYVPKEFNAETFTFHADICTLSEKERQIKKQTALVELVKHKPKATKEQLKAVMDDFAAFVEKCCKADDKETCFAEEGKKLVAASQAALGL
# Assay Procedure: intrinsic fluorescence quenching titration
Property Name: Kd (µM)
Answers are plain numbers, in µM.

Sure, the documented Kd for O=C(O)CCCC[C@@H](S)CCS [dihydro-alpha-lipoic acid] is 125

These measurements were taken from paper doi:10.1101/2020.10.16.342121v1.
